Values compiled from patent US20230348373A1.

Test system: SW620 colorectal cancer cell line
Test: Cell viability (Cell Titer-Glo) in SW620 cells
Format: cell-based
Settings: Homo sapiens, SW-620; replete media; 48 h incubation, 24 h recovery; first value of IC50/IC90
recordedEndpoint: IC50

[2H]C(O)(CCC(CCSCc1ccccc1)SCc1ccccc1)CC(N)=O (centres unmarked) = 28 µM

The record that follows has no IC50 shown yet.
Field: IC50 (SW620 colorectal cancer cell line). Entry: [2H]C(O)(CCC(CCSCc1ccccc1)SCc1ccccc1)CC(=O)O (centres unmarked)
> 300 µM
